meta.source: PubChem BioAssay AID1259309

test name: growth inhibition of ugtP-null S. aureus, primary screen, RN4220 ugtP deletion, OD600 (AID 1259309);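 further: plate controls were untreated wells for no effect and antibiotic for full effect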
assay conditions: 16 h, stronger effect = higher value
Among all 330,000 compounds or so, about 1,800 (0.55%) were called active. What follows is part of a selection rich in actives, with near analogues and random picks from the rest.
endpoint name: growth inhibition (%)
Answer with a number only, understood to be in %.

The molecule identified as Cc1ccc(S(=O)(=O)N=Cc2ccco2)cc1 registered its growth inhibition at 4.28

Lab note: O=C(/C=C/Nc1ccccc1)c1cnc(-c2ccccc2)s1 gave growth inhibition of -8.21

Reported growth inhibition ( CC(C)CC(=O)NC(=S)Nc1cc(C(=O)O)ccc1Cl ) = 9.77

The measured growth inhibition associated with CC(C)C(=O)NC(=S)Nc1ccccc1F reads 14.2

growth inhibition reported for this molecule COc1ccc2c(C)cc3nnnn3c2c1 : 3.97

Short answer for O=C(Nc1nnc(-c2ccccc2)o1)c1cc(-c2cccs2)nc2ccccc12 : growth inhibition was 96.3

The value of growth inhibition measured for the molecule CCc1ccc2c(c1)C(=O)C[C@]1(CCCC(C)C1)O2 (some centres not stated) turned out to be 5.31

Notebook: CCOC(=O)N=C(NC(=O)Nc1ccc(C(=O)OCC)cc1)OC , growth inhibition read as 0.614

For reference, reported growth inhibition for c1ccc(C2C3CN(Cc4cccnc4)C(c4ccccc4)C34CC2(c2ccccc2)C4)cc1 (configuration not stated) stands at 0.638

Data point: CC(C)(C)Cc1nnc(NC(=O)c2cc(-c3ccccc3)nc3ccccc23)s1 ; growth inhibition = -17.6

For record CC(=O)c1cnc(-c2ccccc2)s1 the listed growth inhibition is -8.03

CC(C)CC(=O)NC(=S)Nc1ccc(F)cc1F yielded growth inhibition of 86.4

---

test name: growth inhibition of ugtP-null S. aureus, primary screen, RN4220 ugtP deletion, OD600 (AID 1259309);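 further: plate controls were untreated wells for no effect and antibiotic for full effect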
assay conditions: 16 h
Out of some 330,000 compounds screened, about 1,800 (0.55%) were called active. No stated cut-off is given here; in the data, active means growth inhibition above about 68%; inactive means the rest. The list comes from a sample in which actives are over-represented; it also holds close analogues and randomly drawn compounds.
Could you please pick one outcome from this set? active, inactive

Would you mind telling me which call this test gave CC(=O)c1ccc(NC(=S)NC(=O)CC(C)C)cc1 ?
inactive

Test call, this compound: Cc1ccc(O)c(-c2cc(C(=O)Nc3c(C)n(C)n(-c4ccccc4)c3=O)[nH]n2)c1
inactive

Can you look up the reported call for Cc1ccc(O)c(-c2cc(C(=O)NCc3ccccc3)[nH]n2)c1 for me?
inactive

Field: outcome | Entry: COc1ccc(-c2nnc(NC(=O)CS(=O)(=O)c3ccc(Cl)cc3)o2)c(OC)c1
inactive

Which outcome did this test record for the compound Cc1cc(SCC(=O)NN=Cc2ccc(O)c(O)c2)nc2ccccc12 ?
inactive

Can you look up the reported call for C/C(C=NNc1nc(C)cc(=O)[nH]1)=C\c1ccccc1 for me?
inactive

Would you mind telling me which call this test gave COc1ccc(C=NNC(=O)COc2ccc(C(C)(C)C)cc2)cc1Cn1nc(C)cc1C ?
inactive

Called result for Cc1ccccc1NC(=S)NNC(=O)c1cccc(Br)c1
inactive

Assay result, entry COc1ccc(OC)c(C(C)NC(=S)Nc2ccc(S(=O)(=O)Nc3ncccn3)cc2)c1 (configuration not stated) — outcome?
inactive

Would you mind telling me which call this test gave CC(=NNc1ccc(C(F)(F)F)cn1)c1ccncc1 ?
inactive

Short answer needed: outcome of this test for O=C(O)c1ccc(NC(=NS(=O)(=O)c2ccc(Cl)cc2)c2ccccc2)cc1 ?
inactive

Which outcome was entered for the compound COc1cc(CCCN2C(=O)C(=O)NCC2CC2CCCCC2)cc(OC)c1OC (configuration not stated) in this test?
inactive

In this assay, the call recorded for N#CC1=C(SCc2ccc(C#N)cc2)N=C(N)C(c2nc(-c3ccccc3)cs2)C12CCCCC2 (configuration not stated) was what?
active

Assay result, entry CC(=NNC(=O)c1nnn(-c2nonc2N)c1-c1cccs1)c1ccc(O)cc1 — outcome?
inactive

Could you please tell me the result logged for C[C@]12CCC3c4ccc(OC(=O)c5ccccc5)cc4CCC3C1CCC2O (some centres not stated) in this assay?
inactive

Given COc1ccc(C2=NN(c3nc4ccccc4s3)C(=O)C2)cc1 , state the outcome it received in this test.
active

Could you kindly confirm the outcome this assay logged for Cc1ccc(-c2nnnn2C2CC(=NNC(N)=S)C3OCC2O3)cc1 (configuration not stated) ?
inactive

Hey, what did the test say about CCN(CC(=O)Nc1ccc(OC)cc1)C(=O)CSCc1ccc(C)cc1 ?
inactive

Short answer needed: outcome of this test for O=C(Nc1nnc(-c2ccco2)o1)c1ccc(S(=O)(=O)N2CCOCC2)cc1 ?
inactive

Called result for CC(=NNC(=O)C1CC1c1ccccc1)c1cccs1 (configuration not stated)
inactive

Name the outcome recorded for N#CC(=C(O)CCl)c1nnc2n1CCCCC2 in the assay.
inactive

Can you look up the reported call for Cc1ccc(C)c(NC(=O)c2cc(-c3cc(C)cc(C)c3O)n[nH]2)c1 for me?
active

---

Consider the following compounds; for each one, report its growth inhibition.
test name: growth inhibition of ugtP-null S. aureus, primary screen, RN4220 ugtP deletion, OD600 (AID 1259309);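 further: plate controls were untreated wells for no effect and antibiotic for full effect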
assay conditions: 16 h, stronger effect = higher value
The campaign covered roughly 330,000 compounds. About 1,800 (0.55%) were called active. Shown is part of a subset that was picked to be rich in actives.

growth inhibition reported for this compound S=C(NCCN1CCOCC1)NN=Cc1ccccc1 : -0.962% (inactive)

Form: compound = O=C(NN=Cc1ccncc1)c1cccc(NC(=O)c2ccc(Cl)cc2)c1 ; growth inhibition = -6.73% (inactive)

The compound listed as CC(=NOC(=O)c1ccc(F)cc1)c1sc(-c2ccccc2)nc1C has a reported growth inhibition of -1.32% (inactive)

O=C(Oc1ccc(C=NNc2ccccc2)cc1)c1ccccc1 yielded growth inhibition of -8.03% (inactive)

# compound CCC(C)N1CCC2(CC1)N=c1c(c3c4c5c(C)c(O)c3c(O)c1=NC(=O)C(C)=CC=CC(C)C(O)C(C)C(O)C(C)C(OC(C)=O)C(C)C(OC)C=CO[C@@](C)(O5)C4=O)N2 (stereo not given in full) ; its growth inhibition = 99.6% (active)

---

test name: growth inhibition of ugtP-null S. aureus, primary screen, RN4220 ugtP deletion, OD600 (AID 1259309);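 further: plate controls were untreated wells for no effect and antibiotic for full effect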
assay conditions: 16 h
The campaign covered roughly 330,000 compounds. About 1,800 (0.55%) were called active. No stated cut-off is given here; in the data, active means growth inhibition above about 68%; inactive means the rest. Many of the other results were omitted from the sample, so actives are more common in it than they were.
Classes to choose from: y (active), n (inactive)

Look up the recorded call for ON=C1CC2(CC(=NO)C1=NO)OCCO2 in this test.
n

# lookup: test call for O=C1/C(=C/c2cccs2)CCC1C1CCCC1 (centres undefined)
n

Could you please tell me the result logged for CCC1C/C(=C/c2cccs2)C(=O)/C(=C/c2cccs2)C1 (centres undefined) in this assay?
y

Please state the recorded outcome for this compound: COc1ccc(/C=C/C(=O)c2cc(Br)ccc(=O)c2O)cc1
y

I would be grateful if you could indicate the recorded call for O=C(/C=C/c1ccco1)NC(=S)N1CCCCC1 .
n

Check the results log: what was the call for Cn1c2ccccc2c2cc(C=NNC(=O)c3ccc(N)cc3)ccc21 ?
n

Give the logged outcome of this assay for the following compound: COC(=O)c1ccccc1-c1ccc(C=NNc2nc(N3CCCC3)nc(N3CCCC3)n2)o1
n

Any idea what this test logged for O=C1/C(=C/c2cccs2)CCc2ccccc21 ?
n

Record request — test call for Cc1ccc(C=NNC(=O)CSc2nc3ccccc3n2C)s1
n

Identify the outcome logged in this assay for the compound shown: Cc1ccc(N2C(=O)C3N=NN(CC(=O)N4N=C(c5cccc6ccccc56)CC4c4ccccc4)C3C2=O)cc1 (centres undefined)
n

Record lookup: outcome of this test for CCC(=NOC(=O)c1cccc(C)c1)C(=O)c1cccs1 ?
n

I would be grateful if you could indicate the recorded call for CC(=O)C(=NNc1ccccc1)Sc1nnc(-c2ccccc2)n1-c1ccccc1 .
n

Call for entry CCOC(=O)c1c(NC(=O)Cn2nc(C(F)(F)F)cc2C)sc2c1CCC2 :
n

Hi, do you know how CCCCNC(=S)N(C)N=Cc1c(F)c(F)c(F)c(F)c1F came out in this test?
n

Write down the call the test reported for this compound. Item: CCC1CCCCN1C(=O)NC(CCSC)C(=O)OC (centres undefined)
n

Test call, this compound: COC(=O)NN=Cc1cc(Br)ccc1OCc1ccccc1
n

For O=c1ccnc(Nc2ccc(Cl)cc2)[nH]1 , what call appears in the results of this test?
n

How did this test come out for O=C(NN=C/C=C/c1ccco1)c1cccnc1 ?
n

Any idea what this test logged for CC[C@@]12C(=O)N(c3ccccc3)C(=O)N1C(c1cccc(C)c1)C1C(=O)N(Cc3ccccc3)C(=O)C12 (some centres undefined) ?
n

Just curious, what result did CC(=NNC(=O)c1c(-c2ccccc2Cl)noc1C)c1cccc(NC(=O)C(C)C)c1 get here?
n

Lab log entry: CCOC(=O)C1(CCOc2ccccc2)CCN(Cc2cc(OC)cc(OC)c2)CC1 — outcome as called in the assay?
n

Each compound tested received a call. Report the one for CNC(=S)NN=Cc1c(C(=O)OC)cnn1-c1ccc(F)cc1F .
n

Dear all, I need the recorded test outcome for O=[N+]([O-])c1cccc(C=NNc2nc(NCc3ccccc3)nc(N3CCOCC3)n2)c1O , thank you.
n

Any idea what this test logged for C/C(C=NNC(=O)CSc1nc2ccccc2n1C)=C\c1ccco1 ?
n

Which outcome did this test record for the compound OCc1ccc(-c2ccccc2)c(-c2ccccc2)c1 ?
y

Test call, this compound: COc1ccc(NC(=O)ON=Cc2ccc(Br)cc2)cc1
n

Give the logged outcome of this assay for the following compound: COc1ccc(Cl)cc1C(=O)NNC(=S)NC(=O)/C=C/c1ccco1
n

Recorded test call requested for COc1cc(C(=O)NCC(=O)NN=C(C)Cc2ccccc2)cc(OC)c1OC
n

For COc1cccc(C2CC=C(C(=O)O)C(c3ccc(F)cc3)N2S(=O)(=O)c2ccc(C)cc2)c1 (centres undefined) , which call appears in the assay record?
n

Please indicate how the test categorized Cc1c(N2C(=O)CSC2=NN=Cc2ccccc2O)c(=O)n(-c2ccccc2)n1C .
n

Hey, what did the test say about O=C1C2N=NN(CC(=O)N3N=C(c4cccc5ccccc45)CC3c3ccccc3)C2C(=O)N1c1ccccc1 (centres undefined) ?
n

Recorded test call requested for CCc1ccc2c(c1)C1(NN=C(c3ccccc3)S1)C(=O)N2 (centres undefined)
y

For this compound, state the assay outcome: Cc1ccc(OC(=O)c2ccccc2C(=O)OCC(F)(F)C(F)F)cc1
n

Write down the call the test reported for this compound. Item: CCOC(=O)C1(CCOc2ccccc2)CCN(Cc2cc(OC)c(O)cc2Cl)CC1
n

Would you mind telling me which call this test gave COc1cccc(C2C3=C(N=c4sc(=Cc5cccc(O)c5)c(=O)n42)c2ccccc2CC3)c1OC (centres undefined) ?
n

Please indicate how the test categorized C/C(C=NNC(=O)c1nnn(-c2nonc2N)c1C(C)C)=C\c1ccccc1 .
n

Kindly provide the recorded test outcome for the following compound: Cc1ccc(C=NNC(=O)c2ccc(C(=O)NN=Cc3ccc(C)s3)o2)s1
n

Each compound tested received a call. Report the one for O=C(CCl)N(Cc1cccc([N+](=O)[O-])c1)c1cccc(Cl)c1 .
y

Which result was noted for this compound in the test: COc1ccc(C(=O)/C=C/c2cccnc2)c(OC)c1
n

For CC(C)(C)OC(=O)C1=C(CO)CS[C@@H]2[C@H](NC(=O)Cc3ccccc3)C(=O)N12 , what call appears in the results of this test?
y

# lookup: test call for O=C(NC1CC(=NO)c2cc3c(cc21)OCO3)C(F)(F)F (centres undefined)
n

What did the test return for Cc1c(CN2CCC(CO)(CCOc3ccccc3)CC2)[nH]c2ccc(Cl)cc12 ?
y

Returns: the outcome recorded for O=C(COC(=O)c1cc[n+]([O-])cc1)Nc1ccc(Cl)c(C(F)(F)F)c1 in this assay.
n

For Cc1ccc(C=NNC(=O)CSc2nc3ccccc3c(=O)n2-c2ccccc2)s1 , which call appears in the assay record?
n
